# Test system: Escherichia coli TOP10
# assay-notes: shrunken log2 fold change of peptide-encoding DNA abundance (4.5 h post-induction vs induction); higher = less antimicrobial activity (less host growth inhibition)
# recorded-conditions: time post-induction: 4.5 h; library: site-saturation at positions 5, 18, 19, 20
Please provide measured shrunken log2 fold change for the entries that follow.
Could you keep your reply to the number by itself?

Measured shrunken log2 fold change of `RRIRWRPPRLPRPRPRPVHFPRP` : -0.0407

Measured shrunken log2 fold change of `RRIRWRPPRLPRPRPRPFNPPRP` : -0.389

Measured shrunken log2 fold change of `RRIRFRPPRLPRPRPRPGSQPRP` : -0.117

Measured shrunken log2 fold change of `RRIRMRPPRLPRPRPRPNTIPRP` : -0.3

Measured shrunken log2 fold change of `RRIRVRPPRLPRPRPRPWRYPRP` : 0.0359

Measured shrunken log2 fold change of `RRIRKRPPRLPRPRPRPHDNPRP` : 0.029

Measured shrunken log2 fold change of `RRIRQRPPRLPRPRPRPYGLPRP` : -0.048

Measured shrunken log2 fold change of `RRIRNRPPRLPRPRPRPKRIPRP` : -0.107

Measured shrunken log2 fold change of `RRIRQRPPRLPRPRPRPNPCPRP` : -0.349

Measured shrunken log2 fold change of `RRIRRRPPRLPRPRPRPGDIPRP` : 0.0886

Measured shrunken log2 fold change of `RRIRYRPPRLPRPRPRPHDGPRP` : 0.015

Measured shrunken log2 fold change of `RRIRQRPPRLPRPRPRPPPTPRP` : 0.913

Measured shrunken log2 fold change of `RRIRFRPPRLPRPRPRPIRRPRP` : 0.0321

Measured shrunken log2 fold change of `RRIRKRPPRLPRPRPRPAKAPRP` : 0.106

Measured shrunken log2 fold change of `RRIRPRPPRLPRPRPRPWEWPRP` : 0.0238

====

# System: Escherichia coli TOP10
# assay-notes: shrunken log2 fold change of peptide-encoding DNA abundance (4.5 h post-induction vs induction); higher = less antimicrobial activity (less host growth inhibition)
# recorded-conditions: time post-induction: 4.5 h; library: site-saturation at positions 5, 18, 19, 20
endpoint-name: shrunken log2 fold change
Could you keep your reply to the number by itself?

Measured shrunken log2 fold change of `RRIRWRPPRLPRPRPRPDARPRP` : -0.018

Measured shrunken log2 fold change of `RRIRKRPPRLPRPRPRPRFPPRP` : 0.647

Measured shrunken log2 fold change of `RRIRSRPPRLPRPRPRPMSRPRP` : 0.0278

Measured shrunken log2 fold change of `RRIRTRPPRLPRPRPRPFKMPRP` : -0.184

Measured shrunken log2 fold change of `RRIRSRPPRLPRPRPRPRTEPRP` : 0.00553

Measured shrunken log2 fold change of `RRIRNRPPRLPRPRPRPYYTPRP` : -1.27

Measured shrunken log2 fold change of `RRIRWRPPRLPRPRPRPWAKPRP` : 0.279

Measured shrunken log2 fold change of `RRIRDRPPRLPRPRPRPWVRPRP` : -0.21

Measured shrunken log2 fold change of `RRIRERPPRLPRPRPRPFLHPRP` : -0.332

Measured shrunken log2 fold change of `RRIRERPPRLPRPRPRPFDLPRP` : -0.504

Measured shrunken log2 fold change of `RRIRMRPPRLPRPRPRPPWVPRP` : 0.241

Measured shrunken log2 fold change of `RRIRQRPPRLPRPRPRPNIEPRP` : -0.0328

Measured shrunken log2 fold change of `RRIRVRPPRLPRPRPRPATYPRP` : -0.0417

Measured shrunken log2 fold change of `RRIRIRPPRLPRPRPRPTCCPRP` : 0.111

Measured shrunken log2 fold change of `RRIRMRPPRLPRPRPRPVDRPRP` : 0.278

Measured shrunken log2 fold change of `RRIRDRPPRLPRPRPRPLSCPRP` : -0.212

Measured shrunken log2 fold change of `RRIRVRPPRLPRPRPRPLFEPRP` : 0.109

Measured shrunken log2 fold change of `RRIRIRPPRLPRPRPRPHDCPRP` : -0.123

Measured shrunken log2 fold change of `RRIRSRPPRLPRPRPRPFLNPRP` : -1.03

Measured shrunken log2 fold change of `RRIRSRPPRLPRPRPRPKIFPRP` : -0.0746

Measured shrunken log2 fold change of `RRIRQRPPRLPRPRPRPAWNPRP` : -0.206

Measured shrunken log2 fold change of `RRIRSRPPRLPRPRPRPKQAPRP` : -0.0378

Measured shrunken log2 fold change of `RRIRGRPPRLPRPRPRPPIGPRP` : 0.735

Measured shrunken log2 fold change of `RRIRARPPRLPRPRPRPTEGPRP` : 0.941

Measured shrunken log2 fold change of `RRIRSRPPRLPRPRPRPVDNPRP` : -0.493

Measured shrunken log2 fold change of `RRIRIRPPRLPRPRPRPAPCPRP` : -0.0838

Measured shrunken log2 fold change of `RRIRVRPPRLPRPRPRPEMDPRP` : 0.111

Measured shrunken log2 fold change of `RRIRNRPPRLPRPRPRPYTLPRP` : -0.288

Measured shrunken log2 fold change of `RRIRNRPPRLPRPRPRPRKDPRP` : 0.00266

Measured shrunken log2 fold change of `RRIRIRPPRLPRPRPRPVSSPRP` : -0.213

Measured shrunken log2 fold change of `RRIRFRPPRLPRPRPRPKMAPRP` : -0.0582

Measured shrunken log2 fold change of `RRIRERPPRLPRPRPRPYANPRP` : 0.0234

====

# Tested on: Escherichia coli TOP10
# assay-notes: shrunken log2 fold change of peptide-encoding DNA abundance (4.5 h post-induction vs induction); higher = less antimicrobial activity (less host growth inhibition)
# recorded-conditions: time post-induction: 4.5 h; library: site-saturation at positions 5, 18, 19, 20
Mark condition not met for shrunken log2 fold change values under 0.02, and condition met for everything at or above.

Is the recorded value of shrunken log2 fold change equal to or greater than 0.02 for this sequence? `RRIRVRPPRLPRPRPRPPDIPRP`
condition met

Is the recorded value of shrunken log2 fold change equal to or greater than 0.02 for this sequence? `RRIRIRPPRLPRPRPRPRTKPRP`
condition met

Is the recorded value of shrunken log2 fold change equal to or greater than 0.02 for this sequence? `RRIRMRPPRLPRPRPRPIVCPRP`
condition not met

Is the recorded value of shrunken log2 fold change equal to or greater than 0.02 for this sequence? `RRIRFRPPRLPRPRPRPTMYPRP`
condition not met

Is the recorded value of shrunken log2 fold change equal to or greater than 0.02 for this sequence? `RRIRYRPPRLPRPRPRPFQTPRP`
condition not met

Is the recorded value of shrunken log2 fold change equal to or greater than 0.02 for this sequence? `RRIRIRPPRLPRPRPRPFRSPRP`
condition not met

Is the recorded value of shrunken log2 fold change equal to or greater than 0.02 for this sequence? `RRIRFRPPRLPRPRPRPTHQPRP`
condition met

Is the recorded value of shrunken log2 fold change equal to or greater than 0.02 for this sequence? `RRIRDRPPRLPRPRPRPWFIPRP`
condition not met

Is the recorded value of shrunken log2 fold change equal to or greater than 0.02 for this sequence? `RRIRDRPPRLPRPRPRPPIDPRP`
condition not met

Is the recorded value of shrunken log2 fold change equal to or greater than 0.02 for this sequence? `RRIRRRPPRLPRPRPRPWVHPRP`
condition not met

Is the recorded value of shrunken log2 fold change equal to or greater than 0.02 for this sequence? `RRIRDRPPRLPRPRPRPHSTPRP`
condition not met

Is the recorded value of shrunken log2 fold change equal to or greater than 0.02 for this sequence? `RRIRERPPRLPRPRPRPLWKPRP`
condition not met

Is the recorded value of shrunken log2 fold change equal to or greater than 0.02 for this sequence? `RRIRTRPPRLPRPRPRPTCYPRP`
condition not met

Is the recorded value of shrunken log2 fold change equal to or greater than 0.02 for this sequence? `RRIRFRPPRLPRPRPRPSEWPRP`
condition not met

Is the recorded value of shrunken log2 fold change equal to or greater than 0.02 for this sequence? `RRIRIRPPRLPRPRPRPTVDPRP`
condition met

====

# Tested on: Escherichia coli TOP10;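 also: peptides expressed intracellularly from a pBAD plasmid library in pooled LB shake-flask culture, induced with 0.3% L-arabinose, DNA abundance read by NGS, three biological replicates, DESeq2 with apeglm shrinkage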
# assay-notes: shrunken log2 fold change of peptide-encoding DNA abundance (4.5 h post-induction vs induction); higher = less antimicrobial activity (less host growth inhibition)
# recorded-conditions: time post-induction: 4.5 h; library: site-saturation at positions 5, 18, 19, 20
Mark Criterion not met for shrunken log2 fold change values under 0.05, and Criterion met for everything at or above.

Is the recorded value of shrunken log2 fold change equal to or greater than 0.05 for this sequence? `RRIRERPPRLPRPRPRPTGYPRP`
Criterion not met

Is the recorded value of shrunken log2 fold change equal to or greater than 0.05 for this sequence? `RRIRDRPPRLPRPRPRPQNTPRP`
Criterion not met

Is the recorded value of shrunken log2 fold change equal to or greater than 0.05 for this sequence? `RRIRHRPPRLPRPRPRPSFHPRP`
Criterion not met

Is the recorded value of shrunken log2 fold change equal to or greater than 0.05 for this sequence? `RRIRRRPPRLPRPRPRPMYNPRP`
Criterion not met

Is the recorded value of shrunken log2 fold change equal to or greater than 0.05 for this sequence? `RRIRQRPPRLPRPRPRPTNYPRP`
Criterion not met

Is the recorded value of shrunken log2 fold change equal to or greater than 0.05 for this sequence? `RRIRLRPPRLPRPRPRPGNDPRP`
Criterion not met

Is the recorded value of shrunken log2 fold change equal to or greater than 0.05 for this sequence? `RRIRGRPPRLPRPRPRPFMQPRP`
Criterion met

Is the recorded value of shrunken log2 fold change equal to or greater than 0.05 for this sequence? `RRIRCRPPRLPRPRPRPIYSPRP`
Criterion not met

Is the recorded value of shrunken log2 fold change equal to or greater than 0.05 for this sequence? `RRIRYRPPRLPRPRPRPNVWPRP`
Criterion not met

Is the recorded value of shrunken log2 fold change equal to or greater than 0.05 for this sequence? `RRIRQRPPRLPRPRPRPYFVPRP`
Criterion not met

Is the recorded value of shrunken log2 fold change equal to or greater than 0.05 for this sequence? `RRIRLRPPRLPRPRPRPTQQPRP`
Criterion met

Is the recorded value of shrunken log2 fold change equal to or greater than 0.05 for this sequence? `RRIRARPPRLPRPRPRPDWPPRP`
Criterion met

Is the recorded value of shrunken log2 fold change equal to or greater than 0.05 for this sequence? `RRIRWRPPRLPRPRPRPNFQPRP`
Criterion met

Is the recorded value of shrunken log2 fold change equal to or greater than 0.05 for this sequence? `RRIRLRPPRLPRPRPRPDHEPRP`
Criterion not met

Is the recorded value of shrunken log2 fold change equal to or greater than 0.05 for this sequence? `RRIRHRPPRLPRPRPRPHLTPRP`
Criterion not met

Is the recorded value of shrunken log2 fold change equal to or greater than 0.05 for this sequence? `RRIRNRPPRLPRPRPRPWMRPRP`
Criterion met

Is the recorded value of shrunken log2 fold change equal to or greater than 0.05 for this sequence? `RRIRCRPPRLPRPRPRPTGGPRP`
Criterion met

Is the recorded value of shrunken log2 fold change equal to or greater than 0.05 for this sequence? `RRIRLRPPRLPRPRPRPNAYPRP`
Criterion met

Is the recorded value of shrunken log2 fold change equal to or greater than 0.05 for this sequence? `RRIRVRPPRLPRPRPRPIEAPRP`
Criterion not met

Is the recorded value of shrunken log2 fold change equal to or greater than 0.05 for this sequence? `RRIRDRPPRLPRPRPRPVGGPRP`
Criterion met

Is the recorded value of shrunken log2 fold change equal to or greater than 0.05 for this sequence? `RRIRMRPPRLPRPRPRPPIRPRP`
Criterion met

Is the recorded value of shrunken log2 fold change equal to or greater than 0.05 for this sequence? `RRIRCRPPRLPRPRPRPKLFPRP`
Criterion met

Is the recorded value of shrunken log2 fold change equal to or greater than 0.05 for this sequence? `RRIRWRPPRLPRPRPRPSTRPRP`
Criterion not met

Is the recorded value of shrunken log2 fold change equal to or greater than 0.05 for this sequence? `RRIRERPPRLPRPRPRPELNPRP`
Criterion not met

Is the recorded value of shrunken log2 fold change equal to or greater than 0.05 for this sequence? `RRIRKRPPRLPRPRPRPWSKPRP`
Criterion not met

Is the recorded value of shrunken log2 fold change equal to or greater than 0.05 for this sequence? `RRIRTRPPRLPRPRPRPLMNPRP`
Criterion not met

Is the recorded value of shrunken log2 fold change equal to or greater than 0.05 for this sequence? `RRIRHRPPRLPRPRPRPTIQPRP`
Criterion not met

Is the recorded value of shrunken log2 fold change equal to or greater than 0.05 for this sequence? `RRIRERPPRLPRPRPRPLTGPRP`
Criterion not met

Is the recorded value of shrunken log2 fold change equal to or greater than 0.05 for this sequence? `RRIRRRPPRLPRPRPRPQQYPRP`
Criterion not met

Is the recorded value of shrunken log2 fold change equal to or greater than 0.05 for this sequence? `RRIRPRPPRLPRPRPRPETLPRP`
Criterion not met

Is the recorded value of shrunken log2 fold change equal to or greater than 0.05 for this sequence? `RRIRLRPPRLPRPRPRPPFKPRP`
Criterion met
